Where these numbers come from: patent US6858638B2

Target: human KDR enzyme (Homo sapiens)
Construct: The cytoplasmic domain of the human KDR enzyme; GST; made in house; host or cells: SF21 insect cells (baculovirus)
Sequence (P35968 786-1356 limits assumed): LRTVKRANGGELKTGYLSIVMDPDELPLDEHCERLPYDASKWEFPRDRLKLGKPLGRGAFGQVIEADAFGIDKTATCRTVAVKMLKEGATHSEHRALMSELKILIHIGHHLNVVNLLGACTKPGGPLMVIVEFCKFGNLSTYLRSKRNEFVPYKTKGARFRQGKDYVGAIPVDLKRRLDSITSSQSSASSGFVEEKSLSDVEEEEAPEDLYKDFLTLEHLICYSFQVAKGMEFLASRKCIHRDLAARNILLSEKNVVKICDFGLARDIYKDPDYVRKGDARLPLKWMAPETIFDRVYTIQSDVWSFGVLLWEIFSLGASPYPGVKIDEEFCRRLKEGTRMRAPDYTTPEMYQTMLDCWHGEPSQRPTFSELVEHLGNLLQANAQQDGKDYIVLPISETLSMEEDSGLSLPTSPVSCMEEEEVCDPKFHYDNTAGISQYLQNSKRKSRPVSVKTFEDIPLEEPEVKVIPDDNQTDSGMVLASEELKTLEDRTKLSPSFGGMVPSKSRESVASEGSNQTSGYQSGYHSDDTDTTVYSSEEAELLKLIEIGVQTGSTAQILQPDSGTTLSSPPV
Assay: KDR substrate (PLCγ) phosphorylation, scintillation assay
Format: biochemical
Details: 10 μM; read-out: KDR % inhib at 10 μM
inhibition at 10 µM for assorted molecules
I only need the number, in %, no unit after it.

{"molecule smiles": "CS(=O)(=O)c1ccccc1S(=O)(=O)Nc1ccc2[nH]nc(-c3ccc(C(F)(F)F)cc3)c2c1", "units label": "%", "reading": 70}
{"molecule smiles": "CS(=O)(=O)c1ccccc1S(=O)(=O)Nc1ccc2[nH]nc(-c3ccc(CO)cc3)c2c1", "units label": "%", "reading": 45}
{"molecule smiles": "Nc1n[nH]c2ccc(NS(=O)(=O)c3cc(F)cc(F)c3)cc12", "units label": "%", "reading": 25}
{"molecule smiles": "CS(=O)(=O)c1ccccc1S(=O)(=O)Nc1ccc2[nH]nc(/C=C/c3ccccc3)c2c1", "units label": "%", "reading": 97}
{"molecule smiles": "CS(=O)(=O)c1ccccc1S(=O)(=O)Nc1ccc2[nH]nc(-c3ccc(I)cc3)c2c1", "units label": "%", "reading": 37}
{"molecule smiles": "CS(=O)(=O)c1ccccc1S(=O)(=O)Nc1ccc2[nH]nc(-c3ccccc3N)c2c1", "units label": "%", "reading": 18}
{"molecule smiles": "CC1(C)[C@H]2CCC1(CS(=O)(=O)Nc1ccc3[nH]nc(-c4ccccc4)c3c1)C(=O)C2", "units label": "%", "reading": 61}
{"molecule smiles": "O=S(=O)(Nc1ccc2[nH]nc(-c3ccc(O)cc3)c2c1)c1ccccc1", "units label": "%", "reading": 96}
{"molecule smiles": "O=S(=O)(Nc1ccc2[nH]nc(-c3ccccc3)c2c1)c1ccccc1", "units label": "%", "reading": 93}
{"molecule smiles": "CS(=O)(=O)c1ccccc1S(=O)(=O)Nc1ccc2[nH]nc(/C=C/C(=O)O)c2c1.Cl", "units label": "%", "reading": 32}

Record CS(=O)(=O)c1ccccc1S(=O)(=O)Nc1ccc2[nH]nc(C(N)=O)c2c1 : what is its inhibition at 10 µM with human KDR enzyme (Homo sapiens)?
28

How about this molecule: CS(=O)(=O)c1ccccc1S(=O)(=O)Nc1ccc2[nH]nc(-c3cc(Cl)ccc3Cl)c2c1
12

Quick one: CS(=O)(=O)c1ccccc1S(=O)(=O)Nc1ccc2[nH]nc(-c3nc4ccccc4[nH]3)c2c1
93

Would you kindly repeat that for COc1cccc(-c2n[nH]c3ccc(NS(=O)(=O)c4ccccc4S(C)(=O)=O)cc23)c1 ?
44

Now consider O=C(Nc1ccccc1)c1n[nH]c2ccc(NS(=O)(=O)c3cccc(F)c3)cc12 .
18

Item: CS(=O)(=O)c1ccccc1S(=O)(=O)Nc1ccc2[nH]nc(-c3ccoc3)c2c1
49
